Can you tell me Kd for the items I'm about to list?
# assayed-target: T1, EsCas13d, nuclease-dead (Eubacterium siraeum, UniProt B0MS50, R295A;H300A;R849A;H854A)
# T1 sequence: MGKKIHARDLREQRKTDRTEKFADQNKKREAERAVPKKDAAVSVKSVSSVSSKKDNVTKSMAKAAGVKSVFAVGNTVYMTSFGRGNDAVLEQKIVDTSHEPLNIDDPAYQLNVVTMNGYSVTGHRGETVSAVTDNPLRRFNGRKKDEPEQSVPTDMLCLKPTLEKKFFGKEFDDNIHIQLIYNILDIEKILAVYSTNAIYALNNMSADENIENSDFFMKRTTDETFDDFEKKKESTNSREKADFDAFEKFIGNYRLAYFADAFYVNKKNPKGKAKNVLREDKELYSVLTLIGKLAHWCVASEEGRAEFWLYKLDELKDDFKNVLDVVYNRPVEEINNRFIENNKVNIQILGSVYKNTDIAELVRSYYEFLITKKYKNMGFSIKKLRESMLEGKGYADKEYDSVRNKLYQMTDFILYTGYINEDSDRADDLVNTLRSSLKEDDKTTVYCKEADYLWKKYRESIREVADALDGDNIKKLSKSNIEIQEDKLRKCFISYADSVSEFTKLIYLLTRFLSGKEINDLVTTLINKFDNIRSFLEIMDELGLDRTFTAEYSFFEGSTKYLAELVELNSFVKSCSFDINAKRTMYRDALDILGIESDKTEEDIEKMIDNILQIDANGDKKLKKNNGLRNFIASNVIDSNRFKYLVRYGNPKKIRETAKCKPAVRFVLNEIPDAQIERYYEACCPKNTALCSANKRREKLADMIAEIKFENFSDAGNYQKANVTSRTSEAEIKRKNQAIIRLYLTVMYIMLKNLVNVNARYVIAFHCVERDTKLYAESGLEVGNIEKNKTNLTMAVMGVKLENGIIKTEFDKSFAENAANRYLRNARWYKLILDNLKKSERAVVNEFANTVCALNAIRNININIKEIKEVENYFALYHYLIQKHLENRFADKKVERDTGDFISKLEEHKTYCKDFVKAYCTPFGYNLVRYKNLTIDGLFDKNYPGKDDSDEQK
# test-protocol: crRNA (strand 1, pre-loaded); Mg2+; 40 mM Tris-HCl pH 7.5, 150 mM NaCl, 6 mM MgCl2, 1 mM DTT, 0.1% Tween-20, 0.2 mg/ml BSA; 25 C; 10 min per concentration, then washed
# measurement-conditions: tags: His6-TwinStrep-SUMO cleaved; N-terminal SNAP kept (SNAP-Surface 488); label: 3' end held by stalled T7 RNA polymerase
Field format: number, assumed nM, no unit text.

Exam item: # input binder: target 1 insC 3' of 10,insC 3' of 9 (mixed) RNA 1: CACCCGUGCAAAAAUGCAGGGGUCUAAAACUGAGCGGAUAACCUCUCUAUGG RNA 2: GGGAAUGGAUCCACAUCUACGAAUUCGUACCAUAGAGAGGUUCACUCCGCUCACCGAGAUCGGAAGAGCACACGU ; wanted: its Kd
Marked response: 14.9

Exam item: Kd lookup needed for target 1 insA 3' of 11,insC 3' of 10 (mixed) RNA 1: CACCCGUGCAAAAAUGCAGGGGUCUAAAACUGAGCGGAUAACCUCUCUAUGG RNA 2: GGGAAUGGAUCCACAUCUACGAAUUCGUACCAUAGAGAGGUAUCAUCCGCUCACCGAGAUCGGAAGAGCACACGU , thanks.
Marked response: 14.6

Exam item: Which Kd is reported for this binder? target 1 A9G,A16C (mixed) RNA 1: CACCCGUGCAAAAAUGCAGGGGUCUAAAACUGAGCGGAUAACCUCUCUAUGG RNA 2: GGGAAUGGAUCCACAUCUACGAAUUCGUACCAUAGCGAGGUUGUCCGCUCACCGAGAUCGGAAGAGCACACGU
Marked response: 36.4

Exam item: Entry target 2 MT 5'PFS ACA 3'PFS CGG (mixed) RNA 1: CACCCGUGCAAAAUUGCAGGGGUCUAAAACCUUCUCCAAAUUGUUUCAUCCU RNA 2: GGGAAUGGAUCCACAUCUACGAAUUCACAAGGAUGAAACAAUUUGGAGAAGCGGAGAUCGGAAGAGCACACGU has what Kd?
Marked response: 5.2

Exam item: Quick check: Kd of target 1 insC 3' of 12,insC 3' of 5 (mixed) RNA 1: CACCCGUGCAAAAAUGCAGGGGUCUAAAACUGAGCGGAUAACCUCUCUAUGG RNA 2: GGGAAUGGAUCCACAUCUACGAAUUCGUACCAUAGAGAGGCUUAUCCGCCUCACCGAGAUCGGAAGAGCACACGU ?
Marked response: 13.4

Exam item: Item under review: target 1 U3A,G12A (mixed) RNA 1: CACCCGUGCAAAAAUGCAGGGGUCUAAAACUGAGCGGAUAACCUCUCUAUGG RNA 2: GGGAAUGGAUCCACAUCUACGAAUUCGUACCAUAGAGAGAUUAUCCGCACACCGAGAUCGGAAGAGCACACGU . Reported Kd?
Marked response: 4.12

Exam item: Please give the measured Kd for this binder: target 1 insU 3' of 18,insU 3' of 15 (mixed) RNA 1: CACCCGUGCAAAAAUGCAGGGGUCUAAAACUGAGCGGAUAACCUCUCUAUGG RNA 2: GGGAAUGGAUCCACAUCUACGAAUUCGUACCAUAUGAGUAGGUUAUCCGCUCACCGAGAUCGGAAGAGCACACGU
Marked response: 50

Exam item: Report Kd for target 1 insA 3' of 10,insC 3' of 10 (mixed) RNA 1: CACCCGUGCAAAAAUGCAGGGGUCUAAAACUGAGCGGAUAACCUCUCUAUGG RNA 2: GGGAAUGGAUCCACAUCUACGAAUUCGUACCAUAGAGAGGUUACAUCCGCUCACCGAGAUCGGAAGAGCACACGU please.
Marked response: 12.9
